experiment.notes: qHTS Assay for Lipid Storage Modulators in Drosophila S3 Cells
condition: BODIPY lipid droplet fluorescence, 18-24 h, cells fed with added oleic acid; series mostly up to 46.1 µM
Among all 320,000 compounds or so, about 2,100 (0.66%) were called active. Not shown: some 53% with an inconclusive outcome. The call rests on the fitted dose curve; in most records, active means well fitted inhibition curve with a large enough effect in the signal ratio, with a control signal flat (not every such curve was filed as active); inconclusive means small, poorly fitted or top-dose-only effect, or effect the other way, or a change in a side signal; inactive means flat fitted curve, though single readings scatter; the % refers to the signal ratio. The entries come from a sample that favours actives as a whole.
Classes used: active, inactive

| compound | qualitative.label |
| --- | --- |
| Cc1ccc(C(=O)O)cc1S(=O)(=O)N1CCC(C(=O)O)CC1 | inactive |
| O=[N+]([O-])/C=C/c1cn(Cc2ccc(F)cc2)c2ccccc12 | active |
| Cc1cccc2c1N(CCCOc1ccccc1)C(=O)C2=O | inactive |
| O=[N+]([O-])/C=C/c1cn(Cc2ccccc2)c2ccccc12 | active |
| Cc1csc(NC(=O)c2cnc3ccccc3n2)n1 | active |
| COc1ccc(/C=C2\SC(=S)N(N3CCOCC3)C2=O)c(OC)c1 | inactive |
| CNC(=S)N/N=C/c1cn(Cc2ccc(F)cc2)c2ccccc12 | inactive |
| Cc1c(CC(=O)N2CCC(C(N)=O)CC2)c(=O)oc2cc3c(cc12)CCC1(CCCCC1)O3 | active |
| Nc1nonc1C(=O)N/N=C/c1ccc(Br)o1 | inactive |
| CCOc1ccccc1NC(=O)C1CCCN(S(=O)(=O)c2ccc(-n3cnnn3)cc2)C1 (configuration not stated) | inactive |
| CCOc1ccccc1NCc1cc(=O)oc2cc(C)c(O)cc12 | active |
| COc1cc(CNC2CCCCCCC2)c(Br)cc1OCCO | inactive |
| Cc1ccc(C(C)(C)C)cc1S(=O)(=O)N1CCC(C(=O)N2CCN(c3ccc(O)cc3)CC2)CC1 | active |
| O=C(NC(N1CCOCC1)C(Cl)(Cl)Cl)c1cc([N+](=O)[O-])cc([N+](=O)[O-])c1 (configuration not stated) | inactive |
| CN(CC(=O)OCC(=O)c1c(N)n(C)c(=O)n(C)c1=O)S(=O)(=O)c1ccc(Cl)cc1 | inactive |
| COc1cc(NC(=O)CSc2nnnn2C2CCCC2)cc(OC)c1 | inactive |
| Cn1cc(/C=C/c2cc[n+](C)cc2)c2cc(F)ccc21 | active |
| Cc1c(Cc2ccccc2)c(=O)oc2cc(OCC(=O)N3CCC(C(N)=O)CC3)ccc12 | inactive |
| CC(=O)c1ccc(NC(=O)CCNC(=O)c2ccccc2Cl)cc1 | inactive |
| Cc1c(CC(=O)O)c(=O)oc2cc3c(cc12)CCC(C)(C)O3 | inactive |
| O=C(Nc1ccc(F)cc1)/C(=C1/CCCCCN1)[N+](=O)[O-] | inactive |
| CSC1=NCCN1S(=O)(=O)c1ccc2ccccc2c1 | inactive |

----------
experiment.notes: qHTS Assay for Lipid Storage Modulators in Drosophila S3 Cells
condition: BODIPY lipid droplet fluorescence, 18-24 h, cells fed with added oleic acid; series mostly up to 46.1 µM
Out of some 320,000 compounds screened, about 2,100 (0.66%) were called active. Inconclusive results (about 53%) are left out. Calls follow the shape of the dose curve; as a rule, active = well fitted inhibition curve with a large enough effect in the signal ratio, with a control signal flat (not every such curve was filed as active); inconclusive = small, poorly fitted or top-dose-only effect, or effect the other way, or a change in a side signal; inactive = flat fitted curve, though single readings scatter; the % refers to the signal ratio. The full list was thinned out, with actives kept by preference.
Classes used: active, inactive

| molecule | qualitative.label |
| --- | --- |
| O=S(=O)(Nc1nnc(C2CCCCC2)s1)c1ccc(F)cc1 | inactive |
| CN(C)C(=O)c1nc2ccc(Cl)cn2c1CNCc1ccccc1OC(F)(F)F | inactive |
| O=C(Nc1ccccc1)c1ccc(S(=O)(=O)N2CCCCC2)cc1 | inactive |
| CCCCN(c1ccccc1)S(=O)(=O)c1cccc2cccnc12 | inactive |
| CCOC(=O)c1cc(-c2ccccc2)nn1Cc1cc(C)no1 | inactive |
| O=[N+]([O-])c1cccc(C(=S)N2CCCC2)c1 | inactive |
| Fc1cccc(Cl)c1Cn1nnc2c(NCc3ccccn3)ncnc21 | inactive |
| c1ccc(N2CCN(CCc3nnc4n3CCCCC4)CC2)cc1 | inactive |
| CC(C)CSc1nc2c(c(=O)[nH]c(=O)n2C)n1CCc1ccccc1 | inactive |
| CC(=O)Nc1ccc(S(=O)(=O)Nc2nc3ccccc3s2)cc1 | active |
| CCOc1ccc(NC(=O)CN(C)C(=O)c2ccc(COc3ccccc3)o2)cc1OCC | inactive |
| Cc1cc(Cn2nc(-c3ccccc3)cc2C(=O)NCC2CC2)on1 | inactive |
| COc1ccccc1CCC(=O)OC(C)C(=O)Nc1c(C)n(C)n(-c2ccccc2)c1=O (stereo not drawn) | inactive |
| CCOC(=O)c1cc(-c2ccccc2)n(Cc2cc(CC)no2)n1 | active |
| CC(=O)Nc1ccc(S(=O)(=O)Nc2nnc(CC(C)(C)C)s2)cc1 | inactive |
| CCOC(=O)c1cc(-c2ccccc2)nn1Cc1cc(CC)no1 | inactive |
| Cc1cc(C(=O)NCc2ccccc2)no1 | inactive |
| Fc1cccc(NC(=S)N2CCc3ccccc32)c1 | inactive |
| O=C(Nc1ccc(S(=O)(=O)N2CCCCC2)cc1)c1ccc(CN2CCc3ccccc3C2)cc1 | active |
| Cc1ccc(NC(=O)c2ccc(CN3CCc4ccccc4C3)cc2)cc1 | inactive |
| C/C(=C\C(=S)Nc1ccccc1)Nc1ccccc1 | inactive |
| CN1C(C(=O)NCc2ccco2)CC2Cn3c(nc4cc5ccccc5cc43)C21 (stereo not drawn) | inactive |
| O=S(=O)(c1cccc2cccnc12)N(CCO)CCO | inactive |

Source of measurements: PubChem BioAssay AID2685
